tested-on: human adenosine A2b receptor (Homo sapiens (Human))
Sequence (P29275 whole entry): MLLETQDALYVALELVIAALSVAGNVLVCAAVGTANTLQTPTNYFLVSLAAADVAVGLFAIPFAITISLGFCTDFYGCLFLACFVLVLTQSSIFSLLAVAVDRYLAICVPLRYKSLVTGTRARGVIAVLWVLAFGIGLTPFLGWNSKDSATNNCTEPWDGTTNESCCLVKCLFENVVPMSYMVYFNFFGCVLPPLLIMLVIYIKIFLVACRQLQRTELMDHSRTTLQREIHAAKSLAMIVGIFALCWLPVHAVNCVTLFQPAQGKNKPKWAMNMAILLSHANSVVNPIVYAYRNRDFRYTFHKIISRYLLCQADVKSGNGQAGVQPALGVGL
experiment: Cellular in vitro reporter gene test for A2b receptor activity (CHO-K1, CRE-luciferase, NECA stimulation)
Format: cell-based
measurement-setup: recombinant CHO-K1 cell line, CRE-luciferase reporter, antagonism of EC50 concentration of NECA; in some cases means of several determinations, rounded to two significant figures; read-out: A2b receptor IC50
Param label: returns Condition met when IC50 < 20 nM, returns Condition not met otherwise, including exact equality.

> print(dat)
                                    molecule         class.name
 1  COCCn1c(=O)n(CCc2ccccc2)c(=O)c2c(C(F)(F)F)c(CN3CCN(C)C3=O)sc21 [Example 105]      Condition met
 2  CCn1c(=O)c2c(C)c(CN3CCNC3=NC(=O)OC)sc2n(CC2CCO2)c1=O (single isomer, unassigned) [Example 373]      Condition met
 3  Cc1c(CN2CCNC2=NC#N)sc2c1c(=O)n(CC(C)(C)C)c(=O)n2CC1CCCO1 (single isomer, unassigned) [Example 448]      Condition met
 4  CCn1c(=O)c2c(C(F)F)c(CN3CCNC3=S)sc2n(CCOC)c1=O [Example 45]      Condition met
 5  CCn1c(=O)c2c(C)c(CN3CCNC3=S)sc2n(CCOC)c1=O [Example 31]      Condition met
 6  COCCn1c(=O)n(CC(F)(F)F)c(=O)c2c(C)c(CN3CCNC3=NC#N)sc21 [Example 268]      Condition met
 7  CCn1c(=O)c2c(C)c(CN3CCNC3=S)sc2n(CCC(C)(C)C)c1=O [Example 37]  Condition not met
 8  CCn1c(=O)c2c(C)c(CN3CC(N)CC3=O)sc2n(CCC(F)(F)F)c1=O (racemic) [Example 9]  Condition not met
 9  Cc1c(CN2CCNC2=O)sc2c1c(=O)n(CC(C)C)c(=O)n2CC1CCCO1 (single isomer, unassigned) [Example 198]      Condition met
10  CCn1c(=O)c2c(C)c(CN3CCNC3=S)sc2n(CC2CCCCO2)c1=O (single isomer, unassigned) [Example 142]      Condition met
11  COC(=O)N=C1NCCN1Cc1sc2c(c1C)c(=O)n(CC(C)(C)C)c(=O)n2CC1CCCO1 (single isomer, unassigned) [Example 464]      Condition met
12  COCCn1c(=O)c2c(C)c(Cn3cc[nH]c3=O)sc2n(CC2CCCO2)c1=O (single isomer, unassigned) [Example 347]  Condition not met
13  C=CCn1cnn(Cc2sc3c(c2C)c(=O)n(CC)c(=O)n3CCCF)c1=O [Example 350]  Condition not met
14  CCn1c(=O)c2c(C)c(CN3CCNC3=O)sc2n(CCF)c1=O [Example 50]      Condition met
15  [2H]C([2H])(c1sc2c(c1C)c(=O)n(CC(F)(F)F)c(=O)n2CCOC)N1CCNC1=NC#N [Example 513]      Condition met
16  Cc1c(CN2CCNC2=S)sc2c1c(=O)n(CC(F)(F)F)c(=O)n2CCC(F)(F)F [Example 152]      Condition met
17  Cc1c(CN2CCNC(=O)C2=O)sc2c1c(=O)n(CC(F)(F)F)c(=O)n2C [Example 124]  Condition not met
18  COCCn1c(=O)n(CC(C)(C)C)c(=O)c2c(C)c(CN3CCNC(=O)C3=O)sc21 [Example 274]  Condition not met
19  Cc1c(CN2CCNC2=O)sc2c1c(=O)n(CC(C)(C)F)c(=O)n2CCC(F)(F)F [Example 225]      Condition met
20  CCCCn1c(=O)n(CC)c(=O)c2c(C)c(CN3CCNC3=O)sc21 [Example 78]      Condition met
21  COCCn1c(=O)n(C(C)C)c(=O)c2c(C)c(CN3CCNC3=NC#N)sc21 [Example 263]      Condition met
22  Cc1c(CN2CCN(C(C)C)C2=S)sc2c1c(=O)n(CC(C)C)c(=O)n2CCCF [Example 304]  Condition not met
23  C=C(Cn1c(=O)n(CC)c(=O)c2c(C)c(CN3CCNC3=O)sc21)C(F)(F)F [Example 53]      Condition met
24  CCn1c(=O)c2c(C)c(CN3CCNC3=S)sc2n(CCCOC)c1=O [Example 296]      Condition met
25  Cc1c(CN2CCNC2=O)sc2c1c(=O)n(CC(C)(C)C)c(=O)n2CCC(F)(F)F [Example 200]      Condition met
26  Cc1c(CN2CCNC2=O)sc2c1c(=O)n(CC(C)C)c(=O)n2CCF [Example 88]      Condition met
27  CCn1c(=O)c2c(C)c(CN3CCNC3=O)sc2n(CC2CCCCO2)c1=O (single isomer, unassigned) [Example 180]  Condition not met
